# Test system: S. enterica typhimurium WT;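 further: active when median AUC fell below 0.1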
# assay.procedure: growth AUC normalised to DMSO control (median) (fraction of control); higher = less growth inhibition, active = hit call of the paper
# condition.details: 20 µM
Structures can show the parent of a compound that is named as a salt.
Would you mind telling me the reported growth AUC normalised to DMSO control of each entry?
Respond using a number only.

Query string: Reported growth AUC normalised to DMSO control, molecule CC(C)(S)C(N)C(=O)O (racemic) : ____
Result string: 1.01

Query string: Look at this molecule and give its reported growth AUC normalised to DMSO control. "CC1=C(C(=O)O)N2C(=O)[C@@H](NC(=O)[C@H](N)c3ccc(O)cc3)[C@H]2SC1"
Result string: 0.996

Query string: growth AUC normalised to DMSO control lookup needed for "O=C1NCCN1CCN1CCC(c2cn(-c3ccc(F)cc3)c3ccc(Cl)cc23)CC1" , thanks.
Result string: 1

Query string: Looking for the measured growth AUC normalised to DMSO control of "Cc1c(N)c(=O)n(-c2ccccc2)n1C" , can you help?
Result string: 1

Query string: // growth AUC normalised to DMSO control lookup, key: CO[C@@H]1[C@@H](OC(N)=O)[C@@H](O)[C@H](Oc2ccc3c(O)c(NC(=O)c4ccc(O)c(CC=C(C)C)c4)c(=O)oc3c2C)OC1(C)C [Novobiocin sodium salt]
Result string: 0.999

Query string: So what's the measured growth AUC normalised to DMSO control for this one? CC1(C)O[C@@H]2[C@@H](CO[C@@]3(COS(N)(=O)=O)OC(C)(C)O[C@@H]23)O1 [Topiramate]
Result string: 0.996

Query string: What value of growth AUC normalised to DMSO control has been reported for the following molecule? "Oc1c(Br)cc(Br)c2cccnc12"
Result string: 0.986

Query string: Which growth AUC normalised to DMSO control is listed for "CCOc1ccc2c(c1)C(C)=CC(C)(C)N2" ?
Result string: 1.01

Query string: Can you look up the measured growth AUC normalised to DMSO control of "O=C(O)c1cccnc1Nc1cccc(C(F)(F)F)c1" for me?
Result string: 1

meta.source: the supplement of paper PMC12350171
